Origin of values: PubChem BioAssay

Target: ATP-binding cassette sub-family B member 6 (Homo sapiens) (UniProt Q9NP58)
Sequence (Q9NP58 whole entry, looked up): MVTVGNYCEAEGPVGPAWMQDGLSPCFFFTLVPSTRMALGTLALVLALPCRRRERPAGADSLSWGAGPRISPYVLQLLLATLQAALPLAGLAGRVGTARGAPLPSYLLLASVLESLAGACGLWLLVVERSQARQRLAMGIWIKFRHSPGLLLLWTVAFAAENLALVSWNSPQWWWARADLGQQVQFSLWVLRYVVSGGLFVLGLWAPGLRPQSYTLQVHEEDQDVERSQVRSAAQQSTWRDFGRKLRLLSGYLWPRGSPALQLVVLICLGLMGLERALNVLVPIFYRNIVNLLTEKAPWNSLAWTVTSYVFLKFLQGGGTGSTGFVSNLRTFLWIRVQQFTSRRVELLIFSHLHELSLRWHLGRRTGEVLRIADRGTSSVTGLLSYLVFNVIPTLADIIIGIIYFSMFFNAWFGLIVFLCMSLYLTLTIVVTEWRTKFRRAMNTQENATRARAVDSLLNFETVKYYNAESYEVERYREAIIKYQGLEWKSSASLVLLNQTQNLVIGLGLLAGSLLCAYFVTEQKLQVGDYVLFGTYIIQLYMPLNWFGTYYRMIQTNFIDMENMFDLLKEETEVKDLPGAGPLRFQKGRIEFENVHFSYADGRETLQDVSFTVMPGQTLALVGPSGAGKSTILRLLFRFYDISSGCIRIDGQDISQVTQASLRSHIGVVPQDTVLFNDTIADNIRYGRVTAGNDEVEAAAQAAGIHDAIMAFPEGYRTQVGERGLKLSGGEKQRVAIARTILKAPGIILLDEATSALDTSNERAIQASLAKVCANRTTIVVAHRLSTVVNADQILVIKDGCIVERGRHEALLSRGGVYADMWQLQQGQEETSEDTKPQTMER
Assay: ABCB6 transporter inhibitors, pilot screen, K562-ABCB6 cells, flow cytometry, validation set (AID 588550);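 also: 0% = DMSO wells and 100% = benzethonium chloride 70 µM positive control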
Details: K562-ABCB6 porphyrin accumulation, 1 h, at 10 µM, hits give high values
recordedMetric: inhibition (%)
Please respond with the number in % and leave the unit unwritten.

>  <structureAsSmiles>
Clc1ccccc1CN1CCc2sccc2C1

>  <unitOfMeasure>
%

>  <inhibition>
0

$$$$

// inhibition lookup, molecule = O=C(COc1ccccc1)N1CCN(c2ccccc2)CC1 , result: 6

====

Assay: yeast TOR pathway RPL19A-GFP modulators, primary screen, cell-based, S. cerevisiae, multiplex flow cytometry (AID 1862);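 also: lower values mimic rapamycin by blocking the RPL19A rise seen in DMSO cells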
Details: S. cerevisiae RPL19A-GFP strain, flow cytometry fluorescence, 3 h; at 10 µM; hits give low values
Records with an inconclusive call do not appear.
recordedMetric: percent of DMSO control GFP (%)
Please respond with the number in % and leave the unit unwritten.

// percent of DMSO control GFP lookup, compound = O=[N+]([O-])c1cc(/C=N/n2cnnc2)ccc1N1CCCC1 , result: 100

// percent of DMSO control GFP lookup, compound = O=C(Nc1ccc(Oc2c(F)c(F)c(F)c(F)c2F)cc1)OC1CCN2Cc3ccccc3N=C12 (centres undefined) , result: 107

// percent of DMSO control GFP lookup, compound = CCOC(=O)Cc1c(C)nc(N)[nH]c1=O , result: 101

// percent of DMSO control GFP lookup, compound = CC(C)Cc1cc(C(=O)N2CCC(N3CCC(C(=O)N4CCCC4)CC3)CC2)n[nH]1 , result: 100

// percent of DMSO control GFP lookup, compound = O=c1n(CCCN2CCN(c3cccc(Cl)c3)CC2)nc2ccccn12 , result: 91.5

// percent of DMSO control GFP lookup, compound = NC12CC3CC(CC(C3)C1)C2 , result: 94.4

// percent of DMSO control GFP lookup, compound = NS(=O)(=O)c1cc2c(cc1Cl)NC(CSCc1ccccc1)=NS2(=O)=O , result: 97

// percent of DMSO control GFP lookup, compound = OC[C@@H](O)[C@@H](O[C@H]1O[C@H](CO)[C@@H](O)[C@H](O)[C@H]1O)[C@H](O)[C@@H](O)CO , result: 102

// percent of DMSO control GFP lookup, compound = COCCCC/C(=N\OCCN)c1ccc(C(F)(F)F)cc1 , result: 108

// percent of DMSO control GFP lookup, compound = COc1cc(C2C(C(=O)c3ccc(C)o3)=C(O)C(=O)N2Cc2cccnc2)ccc1O (centres undefined) , result: 102

// percent of DMSO control GFP lookup, compound = COc1ccc(CCNC(=O)C(=O)Nc2ccc3c(c2)OCO3)cc1OC , result: 104

// percent of DMSO control GFP lookup, compound = O=C1C2C3C=CC(C4CC34)C2C(=O)N1/N=C/c1ccc(-c2ccc([N+](=O)[O-])cc2)o1 (centres undefined) , result: 103

// percent of DMSO control GFP lookup, compound = Nc1cccc2c1nnn2C1OC(CO)C(O)C(O)C1O (centres undefined) , result: 104

// percent of DMSO control GFP lookup, compound = CCOC(=O)C1=C(N)Oc2c(oc(CO)cc2=O)C1c1ccc(F)c(F)c1 (centres undefined) , result: 99.1

// percent of DMSO control GFP lookup, compound = CC(C)(C)NC[C@H](O)COc1nsnc1N1CCOCC1 , result: 94.4

// percent of DMSO control GFP lookup, compound = COCCOC(=O)c1c(C)oc2ccc(OCc3cc(C(=O)OC)oc3C)cc12 , result: 97.6

// percent of DMSO control GFP lookup, compound = COC(=O)c1ccc(=O)n(Cc2ccco2)c1 , result: 94.7

// percent of DMSO control GFP lookup, compound = Cn1cc(CN2CCCC(CO)(Cc3cccc(Cl)c3)C2)cn1 (centres undefined) , result: 98

// percent of DMSO control GFP lookup, compound = CN(C)c1ccc(O)c2c1CC1CC3[C@@H](N(C)C)C(=O)C(C(N)=O)=C(O)[C@]3(O)C(=O)C1=C2O (some centres undefined) , result: 100

====

Quick reference: GFP response relative to DMSO of the listed items.
Experiment: LAP4-GFP expression modulators in yeast, confirmation, cell-based, cherry picks, flow cytometry, mother/daughter gates (AID 2271);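 also: ratio of sample to DMSO plate mean so 100% equals DMSO level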
Conditions: S. cerevisiae LAP4-GFP strain, 3 h, at 10 µM, hits give high values, 100 means same as DMSO control
Please respond with the number in % and leave the unit unwritten.

Solved entries (count: 3):
>  <compound>
O=C1C=C(c2ccc(Cl)cc2)C(=O)N1Nc1ccccc1

>  <unitOfMeasure>
%

>  <GFP response relative to DMSO>
96.2

$$$$
>  <compound>
CC(=O)c1sc2nc(C)c3c(c2c1N)CCCC3

>  <unitOfMeasure>
%

>  <GFP response relative to DMSO>
111

$$$$
>  <compound>
COCc1nnc(NC(=O)c2ccc(S(=O)(=O)N3CCCCCC3)cc2)o1

>  <unitOfMeasure>
%

>  <GFP response relative to DMSO>
105

$$$$

// GFP response relative to DMSO lookup, compound = CCCc1cc(NCc2ccccn2)n2nc(C)c(-c3ccccc3)c2n1 , result: 172

// GFP response relative to DMSO lookup, compound = COc1ccc(C(c2c(C)[nH]n(C(N)=S)c2=O)C(C#N)C#N)cc1 (stereo not drawn) , result: 317

// GFP response relative to DMSO lookup, compound = COc1ccccc1-c1nnc(NC(=O)c2ccc(S(=O)(=O)N3CCCC3)cc2)o1 , result: 96.2

// GFP response relative to DMSO lookup, compound = Cc1cc(=O)n2c3c(sc2n1)C(=O)N(Cc1ccccc1)C3=O , result: 152

// GFP response relative to DMSO lookup, compound = C/C(=N\NC(=O)c1cccc(Cl)c1)c1cccc(NC(=O)C(C)C)c1 , result: 92.9

// GFP response relative to DMSO lookup, compound = CC(=O)Nc1ccc(-c2csc(NC(=O)c3ccc(C)o3)n2)cc1 , result: 97.9

// GFP response relative to DMSO lookup, compound = COCCNC(=O)/C(C#N)=C/c1c(N2CC(C)OC(C)C2)nc2ccccn2c1=O (stereo not drawn) , result: 98.2

// GFP response relative to DMSO lookup, compound = CCCc1[nH]nc2c1C(c1ccc(OC)c(CSC3=NCCS3)c1)C(C#N)=C(N)O2 (stereo not drawn) , result: 109

// GFP response relative to DMSO lookup, compound = O=C(COC(=O)CCc1nc2ccccc2s1)Nc1nc(-c2ccccc2)cs1 , result: 96.2

// GFP response relative to DMSO lookup, compound = O=C(Oc1ccnc2cc(Cl)ccc12)N1CCCCCC1 , result: 114

// GFP response relative to DMSO lookup, compound = Cc1cc(NC(=O)c2cccnc2Cl)ccc1NC(=O)c1cc2ccccc2o1 , result: 103

// GFP response relative to DMSO lookup, compound = CCOc1ccc(Nc2ccc(C(=O)O)cc2[N+](=O)[O-])cc1 , result: 101

// GFP response relative to DMSO lookup, compound = Cc1cccc(N=c2oc3cc(O)ccc3cc2C(N)=O)c1 , result: 100

// GFP response relative to DMSO lookup, compound = Cc1ccccc1N1C(=O)c2cccc3c(N(C)CCO)ccc(c23)C1=O , result: 100

// GFP response relative to DMSO lookup, compound = CC(=O)Nc1c(-c2ccc(F)cc2)nc2ccccn12 , result: 106

====

Experiment: inhibitors of fungal efflux pumps CDR1, CDR2, MDR1, pilot screen, validation compound set, multiplex, phenotypic (AID 588506);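 also: Nile Red retained in cells so higher fluorescence means more efflux inhibition; 0 = negative control wells and 1 = enniatin B 25 µM full block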
Settings: S. cerevisiae pump-expressing triplex, Nile Red efflux flow cytometry; at 10 µM; the pumps come from Candida albicans
The source made the active and inactive calls.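 The calls were made as follows: active = efflux inhibition above 0.42, the validation set average plus 4 SD; inconclusive = no clear call, values can overlap the other calls; inactive = the rest.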
Choose the fitting class; nothing outside active, inactive is accepted.

>  <molecule>
O=C(Oc1cccccc1=O)c1ccccc1

>  <classLabel>
inactive

$$$$
>  <molecule>
COc1ccc(C=NCC2COc3ccccc3O2)cc1OC (configuration not stated)

>  <classLabel>
active

$$$$
>  <molecule>
C[N+]12CCC(CC1)C(OC(=O)C(O)(c1ccccc1)c1ccccc1)C2 (configuration not stated)

>  <classLabel>
inactive

$$$$

Recorded test call requested for CC1CNCCN1S(=O)(=O)c1cccc2cnccc12 (configuration not stated)
inactive

Recorded test call requested for Nc1cccc2nc3ccccc3cc12
inactive

Recorded test call requested for CC(C)=CCCC(C)CN1CCC(N2CCC(C(=O)N3CCCC3)CC2)CC1 (configuration not stated)
inactive

====

Experiment: modulators of MEP2-GFP levels in yeast, confirmation, S. cerevisiae, flow cytometry GFP, cherry picks (AID 2272);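 also: ratio of well signal to plate DMSO mean so 100% equals DMSO level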
Settings: S. cerevisiae MEP2-GFP strain, 3 h, at 10 µM, hits give high values
recordedMetric: GFP response vs DMSO (%)
Please respond with the number in % and leave the unit unwritten.

// GFP response vs DMSO lookup, compound = O=[N+]([O-])c1ccc(SCCc2ccncc2)cc1 , result: 96.2

// GFP response vs DMSO lookup, compound = COc1ccc(C(=O)NC(=S)NNC(=O)c2cnccn2)cc1 , result: 114

// GFP response vs DMSO lookup, compound = Cc1cc(N=Nc2ccccc2C(=O)O)c(C)c(C)c1O , result: 114

// GFP response vs DMSO lookup, compound = CCCc1cc(N2CCN(c3ccccn3)CC2)n2nc(C)c(-c3ccccc3)c2n1 , result: 160
